- System: Cricetinae gen. sp.
- assay.remarks: Cultures with no evidence of squamous metaplasia at a conc of 10e-11 M
- Type: functional, Cricetulus griseus
readout.name: Culture (%)
Give bare numbers, in %.

Examples with their reported Culture follow.
compound | Culture (%)
CC1=C(/C=C/C(C)=C/C=C/C(C)=C/C(=O)NC(C)C(=O)O)C(C)(C)CCC1 (centres undefined) | 0
CC1=C(/C=C/C(C)=C/C=C/C(C)=C\C(=O)NC(Cc2ccccc2)C(=O)O)C(C)(C)CCC1 (centres undefined) | 29
CC1=C(/C=C/C(C)=C/C=C/C(C)=C\C(=O)NC(CC(C)C)C(=O)O)C(C)(C)CCC1 (centres undefined) | 33

Let us move to another entry and its Culture.
Input: Give the measured Culture of CC1=C(/C=C/C(C)=C/C=C/C(C)=C\C(=O)NC(C)C(=O)O)C(C)(C)CCC1 (centres undefined) .
Output: 14

* * *

- Tested on: Cricetinae gen. sp.
- assay.remarks: Cultures with marked degree of squamous metaplasia at a conc of 10e-8 M
- Assay type: functional, Cricetulus griseus
Labelling: Culture reported below 20% becomes True; at or above becomes False.

Example entries and their recorded answers appear below.
compound | cat
CC1=C(/C=C/C(C)=C/C=C/C(C)=C/C(=O)NC(C)C(=O)O)C(C)(C)CCC1 (stereo unspecified) | True
CC1=C(/C=C/C(C)=C/C=C/C(C)=C/C(=O)NC(Cc2ccc(O)cc2)C(=O)O)C(C)(C)CCC1 (stereo unspecified) | False
CC1=C(/C=C/C(C)=C/C=C/C(C)=C/C(=O)NC(CCC(=O)O)C(=O)O)C(C)(C)CCC1 (stereo unspecified) | False
CC1=C(/C=C/C(C)=C/C=C/C(C)=C\C(=O)NC(CC(C)C)C(=O)O)C(C)(C)CCC1 (stereo unspecified) | True

Input: # check: Culture < 20% for CC1=C(/C=C/C(C)=C/C=C/C(C)=C\C(=O)NC(C)C(=O)O)C(C)(C)CCC1 (stereo unspecified)
Output: True

* * *

Record form. Attribute: Culture. Fill in for each entry.
- System: Cricetinae gen. sp.
- assay.remarks: Cultures with mild degree of squamous metaplasia at a conc of 10e-8 M
- Format: functional, Cricetulus griseus
One number for each entry, in %.

Completed entries (count: 5):
compound | readout.name | reading
CC1=C(/C=C/C(C)=C/C=C/C(C)=C/C(=O)NC(C)C(=O)O)C(C)(C)CCC1 (stereo unspecified) | Culture | 0
CC1=C(/C=C/C(C)=C/C=C/C(C)=C/C(=O)NC(Cc2ccc(O)cc2)C(=O)O)C(C)(C)CCC1 (stereo unspecified) | Culture | 0
CC1=C(/C=C/C(C)=C/C=C/C(C)=C\C(=O)NC(CC(C)C)C(=O)O)C(C)(C)CCC1 (stereo unspecified) | Culture | 14
CC1=C(/C=C/C(C)=C/C=C/C(C)=C\C(=O)NC(Cc2ccccc2)C(=O)O)C(C)(C)CCC1 (stereo unspecified) | Culture | 13
CC1=C(/C=C/C(C)=C/C=C/C(C)=C/C(=O)NC(CCC(=O)O)C(=O)O)C(C)(C)CCC1 (stereo unspecified) | Culture | 12

Input: Can you look up Culture on Cricetinae gen. sp. for CC1=C(/C=C/C(C)=C/C=C/C(C)=C\C(=O)NC(C)C(=O)O)C(C)(C)CCC1 (stereo unspecified) ?
Output: 0

* * *

- System: Cricetinae gen. sp.
- assay.remarks: Cultures with mild degree of squamous metaplasia at a conc of 10e-11 M
- Type: functional, Cricetulus griseus
readout.name: Culture (%)
Give bare numbers, in %.

compound | endpoint.unit | Culture
CC1=C(/C=C/C(C)=C/C=C/C(C)=C\C(=O)NC(Cc2ccccc2)C(=O)O)C(C)(C)CCC1 (centres undefined) | % | 14
CC1=C(/C=C/C(C)=C/C=C/C(C)=C/C(=O)NC(C)C(=O)O)C(C)(C)CCC1 (centres undefined) | % | 29
CC1=C(/C=C/C(C)=C/C=C/C(C)=C\C(=O)NC(CC(C)C)C(=O)O)C(C)(C)CCC1 (centres undefined) | % | 0

Now for the compound whose Culture we want.
Input: State the recorded Culture for this entry: CC1=C(/C=C/C(C)=C/C=C/C(C)=C\C(=O)NC(C)C(=O)O)C(C)(C)CCC1 (centres undefined)
Output: 0

* * *

- Test system: Cricetinae gen. sp.
- assay.remarks: Cultures with severe degree of squamous metaplasia at a conc of 10e-8 M
- Type: functional, Cricetulus griseus
Task for the reader: assign each of the following compounds its reported Culture.
Remember to follow the number with its unit.

compound | measurement.target | Culture
CC1=C(/C=C/C(C)=C/C=C/C(C)=C\C(=O)NC(C)C(=O)O)C(C)(C)CCC1 (stereo unspecified) | Cricetinae gen. sp. | 0%
CC1=C(/C=C/C(C)=C/C=C/C(C)=C\C(=O)NC(Cc2ccccc2)C(=O)O)C(C)(C)CCC1 (stereo unspecified) | Cricetinae gen. sp. | 7%
CC1=C(/C=C/C(C)=C/C=C/C(C)=C/C(=O)NC(Cc2ccc(O)cc2)C(=O)O)C(C)(C)CCC1 (stereo unspecified) | Cricetinae gen. sp. | 0%

Below are some compounds; for each one, tell me its Culture.
1. CC1=C(/C=C/C(C)=C/C=C/C(C)=C\C(=O)NC(CC(C)C)C(=O)O)C(C)(C)CCC1 (stereo unspecified)
2. CC1=C(/C=C/C(C)=C/C=C/C(C)=C/C(=O)NC(C)C(=O)O)C(C)(C)CCC1 (stereo unspecified)
3. CC1=C(/C=C/C(C)=C/C=C/C(C)=C/C(=O)NC(CCC(=O)O)C(=O)O)C(C)(C)CCC1 (stereo unspecified)

Output:
1. 0%
2. 0%
3. 0%

* * *

- Test system: Cricetinae gen. sp.
- assay.remarks: Cultures with no evidence of squamous metaplasia at a conc of 10e-9 M
- Type: functional, Cricetulus griseus
Values of Culture strictly less than 50% map to yes (1), and values of at least 50% map to no (0).

compound | measurement.target | cat
CC1=C(/C=C/C(C)=C/C=C/C(C)=C\C(=O)NC(Cc2ccccc2)C(=O)O)C(C)(C)CCC1 (stereo unspecified) | Cricetinae gen. sp. | no (0)
CC1=C(/C=C/C(C)=C/C=C/C(C)=C/C(=O)NC(CCC(=O)O)C(=O)O)C(C)(C)CCC1 (stereo unspecified) | Cricetinae gen. sp. | yes (1)

Kindly consider the entry below.
Input: Below 50% on Culture? Entry CC1=C(/C=C/C(C)=C/C=C/C(C)=C\C(=O)NC(C)C(=O)O)C(C)(C)CCC1 (stereo unspecified)
Output: yes (1)

* * *

- Test system: Cricetinae gen. sp.
- assay.remarks: Cultures with no evidence of squamous metaplasia at a conc of 10e-9 M
- Format: functional, Cricetulus griseus
readout.name: Culture (%)
One number for each entry, in %.

Worked set:
compound | readout.name | endpoint.unit | reading
CC1=C(/C=C/C(C)=C/C=C/C(C)=C\C(=O)NC(CC(C)C)C(=O)O)C(C)(C)CCC1 (stereo not drawn) | Culture | % | 57
CC1=C(/C=C/C(C)=C/C=C/C(C)=C/C(=O)NC(C)C(=O)O)C(C)(C)CCC1 (stereo not drawn) | Culture | % | 72

Shift focus to the following entry.
Input: # lookup: Culture of CC1=C(/C=C/C(C)=C/C=C/C(C)=C/C(=O)NC(Cc2ccc(O)cc2)C(=O)O)C(C)(C)CCC1 (stereo not drawn)
Output: 38
